measured-target: IGF-1R (Homo sapiens (Human), UniProt P08069)
Sequence (P08069 31-1367): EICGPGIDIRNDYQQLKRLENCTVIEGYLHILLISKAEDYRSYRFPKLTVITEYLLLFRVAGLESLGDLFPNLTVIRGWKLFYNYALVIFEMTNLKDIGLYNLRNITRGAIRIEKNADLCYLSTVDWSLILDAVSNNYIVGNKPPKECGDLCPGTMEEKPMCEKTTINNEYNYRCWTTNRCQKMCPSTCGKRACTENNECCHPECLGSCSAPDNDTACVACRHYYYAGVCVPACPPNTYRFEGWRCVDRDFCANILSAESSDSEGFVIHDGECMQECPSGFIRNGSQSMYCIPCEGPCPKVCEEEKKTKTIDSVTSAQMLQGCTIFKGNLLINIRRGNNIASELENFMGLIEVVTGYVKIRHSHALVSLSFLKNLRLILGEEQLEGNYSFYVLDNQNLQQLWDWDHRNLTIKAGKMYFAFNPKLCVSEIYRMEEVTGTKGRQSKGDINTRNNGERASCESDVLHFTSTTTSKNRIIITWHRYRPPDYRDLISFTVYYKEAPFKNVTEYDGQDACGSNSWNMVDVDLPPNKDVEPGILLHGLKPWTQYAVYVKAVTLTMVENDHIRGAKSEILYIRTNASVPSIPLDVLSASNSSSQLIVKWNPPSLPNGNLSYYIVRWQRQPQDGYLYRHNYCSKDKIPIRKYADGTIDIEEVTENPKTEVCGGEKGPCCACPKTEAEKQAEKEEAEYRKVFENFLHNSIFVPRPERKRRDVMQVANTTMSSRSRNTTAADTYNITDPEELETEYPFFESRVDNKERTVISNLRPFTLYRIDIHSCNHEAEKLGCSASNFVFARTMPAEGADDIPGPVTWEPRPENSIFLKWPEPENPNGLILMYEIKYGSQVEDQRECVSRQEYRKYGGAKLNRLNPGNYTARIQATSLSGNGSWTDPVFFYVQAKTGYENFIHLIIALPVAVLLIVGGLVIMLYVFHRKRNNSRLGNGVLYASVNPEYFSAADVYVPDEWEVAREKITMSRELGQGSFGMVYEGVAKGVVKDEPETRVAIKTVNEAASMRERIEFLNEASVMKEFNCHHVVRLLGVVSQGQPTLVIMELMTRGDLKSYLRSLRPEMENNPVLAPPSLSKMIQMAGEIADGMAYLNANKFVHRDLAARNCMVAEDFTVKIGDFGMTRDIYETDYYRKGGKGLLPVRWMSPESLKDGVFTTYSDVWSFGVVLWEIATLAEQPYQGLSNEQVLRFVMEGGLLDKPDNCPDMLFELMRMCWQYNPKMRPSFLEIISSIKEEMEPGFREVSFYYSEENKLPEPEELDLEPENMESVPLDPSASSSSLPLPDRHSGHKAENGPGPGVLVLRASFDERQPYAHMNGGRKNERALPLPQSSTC
protocol-description: Example B-1: IGF-1R Assay (PC3 cells, IGF1 stimulation, AlphaLISA)
Type: cell-based
condition-label: 200 ng/mL IGF1 stimulation, read-out: Biological Activity against IGF-1R IC50
measured-metric: IC50

• CCc1ccc2cc(Nc3ccnc(Nc4ccc(OCCCN5CCOCC5)cc4)n3)cnc2c1 [Compound 397] = 2000 to 10000 nM
• CN(C)C[C@@H]1COc2cc(Nc3nccc(Nc4cnc5ccc(Cl)cc5c4)n3)ccc2O1 [Compound 145] = ≤ 500 nM
• Cc1ccc2cc(Nc3ccnc(Nc4ccc(OCCCN5CCOCC5)cc4)n3)cnc2c1 [Compound 407] = 500 to 2000 nM
• COc1cc(Nc2nccc(Nc3cnc4cc(Cl)cnc4c3)n2)ccc1O[C@H]1C[C@@H](N(C)C)C1 [Compound 278] = ≤ 500 nM
• COc1cc(Nc2nccc(Nc3cnc4c(c3)CC3(CC4)OCCO3)n2)ccc1OCCCN1CCCCC1 [Compound 303] = ≤ 500 nM

QUERY: What value of IC50 has been recorded for this entry: COc1cc(Nc2nccc(Nc3cnc4c(c3)COC(C)(C)C4)n2)ccc1OCCCN1CCCCC1 [Compound 385]
RESULT: 500 to 2000 nM

QUERY: Consider the compound CN(C)CC1COc2ccc(Nc3nccc(Nc4cnc5ccc(Cl)cc5c4)n3)cc2O1 (stereo not shown) [Compound 142] and give its measured IC50.
RESULT: 500 to 2000 nM

QUERY: Bench note: what IC50 did CN1CCOc2ccc(Nc3nccc(Nc4cnc5cc(F)c(F)cc5c4)n3)cc21 [Compound 150] show?
RESULT: 500 to 2000 nM

QUERY: Quick check: IC50 of COc1cc(Nc2nccc(Nc3cnc4c(Cl)cc(F)cc4c3)n2)ccc1O[C@H]1C[C@@H](N(C)C)C1 [Compound 116] ?
RESULT: ≤ 500 nM

QUERY: Could you tell me which IC50 is on file for O=S1(=O)CCN(CCCOc2ccc(Nc3nccc(Nc4cnc5cc(Cl)ccc5c4)n3)cc2)CC1 [Compound 399] ?
RESULT: 2000 to 10000 nM
